The origin of these recorded values is patent US20240417412A1.

Below, each of the molecules is paired with its reported pIC50 value.
Molecular target: KRAS G12D (Homo sapiens, UniProt P01116, G12D)
Sequence (P01116 1-188 isoform P01116-2 G12D): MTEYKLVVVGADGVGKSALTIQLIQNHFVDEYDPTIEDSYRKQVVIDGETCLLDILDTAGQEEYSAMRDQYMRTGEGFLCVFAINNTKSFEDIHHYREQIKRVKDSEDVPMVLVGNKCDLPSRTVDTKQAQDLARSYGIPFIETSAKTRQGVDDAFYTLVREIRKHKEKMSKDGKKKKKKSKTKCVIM
Assay: KRAS G12D TR-FRET Assay
Conditions: His-tagged KRAS G12D, biotinylated KRPep-2d, read-out: KRAS G12D Binding IC50
pIC50: −log10 of the molar value.

>  <MOLECULE>
CCc1c(F)ccc2cc(O)cc(-c3ncc4c(N5CCCC6(CNC6=O)C5)nc(OC[C@@]56CCCN5C[C@H](F)C6)nc4c3F)c12 (single isomer, unassigned) [Example 46]

>  <pIC50>
7.23

$$$$
>  <MOLECULE>
CCc1c(F)ccc2cc(O)cc(-c3ncc4c(N5CC(O)CC6(CC6)C5)nc(OC[C@@]56CCCN5C[C@H](F)C6)nc4c3F)c12 (single isomer, unassigned) [Example 3]

>  <pIC50>
9.00

$$$$
>  <MOLECULE>
CCc1c(F)ccc2cc(O)cc(-c3ncc4c(N5CCOC6(CC6)C5)nc(OC[C@@]56CCCN5C[C@H](F)C6)nc4c3F)c12

>  <pIC50>
8.10

$$$$
>  <MOLECULE>
CCc1cccc2cc(O)cc(-c3ncc4c(N5CCCC6(CCO6)C5)nc(OC[C@@]56CCCN5C[C@H](F)C6)nc4c3F)c12 (single isomer, unassigned)

>  <pIC50>
8.70

$$$$
>  <MOLECULE>
C#Cc1c(F)ccc2cc(O)cc(-c3ncc4c(N5CCCC6(CCS(=O)(=O)C6)C5)nc(OC[C@@]56CCCN5C[C@H](F)C6)nc4c3F)c12 (single isomer, unassigned)

>  <pIC50>
8.70

$$$$
>  <MOLECULE>
CCc1c(F)ccc2cc(O)cc(-c3ncc4c(N5CCCC6(CCC(=O)N6)C5)nc(OC[C@@]56CCCN5C[C@H](F)C6)nc4c3F)c12 (stereo partly shown)

>  <pIC50>
8.52

$$$$
>  <MOLECULE>
Oc1cc(-c2ncc3c(N4CCCC5(CCO5)C4)nc(OC[C@@]45CCCN4C[C@H](F)C5)nc3c2F)c2c(Cl)cccc2c1 (single isomer, unassigned)

>  <pIC50>
8.52

$$$$
